- ASSAY NOTES: Plasma zidovudine concentrations and pharmacokinetics in HIV-infected volunteers (RIA)
- Format: in vivo, human
- TEST PARAMETERS: human, plasma; 100 mg single oral dose; read-out: t1/2 (half life), median (converted)
RECORDED METRIC: half-life (h)
Give bare numbers, in h.

Just so you know, measured half-life for "Cc1cn([C@H]2C[C@H](N=[N+]=[N-])[C@@H](CO)O2)c(=O)[nH]c1=O" came out at 1.29

---

- ASSAY NOTES: Plasma zidovudine concentrations and pharmacokinetics in HIV-infected volunteers (RIA)
- Assay type: in vivo, human
- TEST PARAMETERS: human, plasma; 100 mg single oral dose; read-out: AUC (area under the curve), median
RECORDED METRIC: AUC (ng·h/mL)
Numbers only, in ng·h/mL.

Just so you know, measured AUC for "Cc1cn([C@H]2C[C@H](N=[N+]=[N-])[C@@H](CO)O2)c(=O)[nH]c1=O" came out at 1200

---

- ASSAY NOTES: Plasma zidovudine concentrations and pharmacokinetics in HIV-infected volunteers (RIA)
- Type: in vivo, human
- TEST PARAMETERS: human, plasma; 500 mg single oral dose; 4 h
RECORDED METRIC: concentration at 4 h (nM)
Give bare numbers, in nM.

Just so you know, measured concentration at 4 h for "Cc1cn([C@H]2C[C@H](N=[N+]=[N-])[C@@H](CO)O2)c(=O)[nH]c1=O" came out at 900

---

- ASSAY NOTES: Plasma zidovudine concentrations and pharmacokinetics in HIV-infected volunteers (RIA)
- Assay type: in vivo, human
- TEST PARAMETERS: human, plasma, po; 500 mg dose
RECORDED METRIC: concentration at 1 h (µM)
Give bare numbers, in µM.

Just so you know, measured concentration at 1 h for "Cc1cn([C@H]2C[C@H](N=[N+]=[N-])[C@@H](CO)O2)c(=O)[nH]c1=O" came out at 6.3

---

- ASSAY NOTES: Plasma zidovudine concentrations and pharmacokinetics in HIV-infected volunteers (RIA)
- Format: in vivo, human
- TEST PARAMETERS: human, plasma; 500 mg single oral dose; read-out: t1/2 (half life), median (converted)
RECORDED METRIC: half-life (h)
Give bare numbers, in h.

Just so you know, measured half-life for "Cc1cn([C@H]2C[C@H](N=[N+]=[N-])[C@@H](CO)O2)c(=O)[nH]c1=O" came out at 1.07

---

- ASSAY NOTES: Plasma zidovudine concentrations and pharmacokinetics in HIV-infected volunteers (RIA)
- Format: in vivo, human
- TEST PARAMETERS: human, plasma; 500 mg single oral dose; 6 h
- Protocol: Pharmacokinetic studies in patients. To assess the utility and sensitivity of the bioassay of the invention in patients, a clinical study was performed. The study was approved by the Institutional Review Board of St. Jude Children's Research Hospital and informed consent was obtained from each individual according to institutional procedures. Individuals in this study were HIV-infected individuals recruited from an area clinic. […] CD4 and CD8 cell counts were determined from baseline samples. […]
RECORDED METRIC: concentration at 6 h (nM)
Numbers only, in nM.

Just so you know, measured concentration at 6 h for "Cc1cn([C@H]2C[C@H](N=[N+]=[N-])[C@@H](CO)O2)c(=O)[nH]c1=O" came out at 360

---

- ASSAY NOTES: Plasma zidovudine concentrations and pharmacokinetics in HIV-infected volunteers (RIA)
- Type: in vivo, human
- TEST PARAMETERS: human, plasma; 500 mg single oral dose; read-out: AUC (area under the curve), median
RECORDED METRIC: AUC (ng·h/mL)
Give bare numbers, in ng·h/mL.

Just so you know, measured AUC for "Cc1cn([C@H]2C[C@H](N=[N+]=[N-])[C@@H](CO)O2)c(=O)[nH]c1=O" came out at 4200

---

- ASSAY NOTES: Plasma zidovudine concentrations and pharmacokinetics in HIV-infected volunteers (RIA)
- Format: in vivo, human
- TEST PARAMETERS: human, plasma; 100 mg single oral dose; 2 h
RECORDED METRIC: concentration at 2 h (nM)
One number for each entry, in nM.

Just so you know, measured concentration at 2 h for "Cc1cn([C@H]2C[C@H](N=[N+]=[N-])[C@@H](CO)O2)c(=O)[nH]c1=O" came out at 760
